Cited source for all entries: paper PMC5240623

System: EmMBD2/3 MBD (Ephydatia muelleri)
assay.name: SPR
recorded.conditions: 5-methyl-C at C9 of strand 1 and C8 of strand 2 (central CpG); two other CpGs unmethylated; SPR: 10 mM HEPES pH 7.4, 50 mM NaCl, 3 mM MgCl2, 0.1 mM EDTA, 1 mM DTT, 0.05% polysorbate 20, temperature not stated; NMR conditions not in material
readout.name: pKd
One number for each entry, as −log10 of the molar value.

For record GAGGCGCTCGGCGGCAG (double strand) [mCpG 17 bp, 3'-biotin] the listed pKd is 6.37

====

Tested on: EmMBD2/3 MBD (Ephydatia muelleri)
assay.name: SPR
recorded.conditions: SPR: 10 mM HEPES pH 7.4, 50 mM NaCl, 3 mM MgCl2, 0.1 mM EDTA, 1 mM DTT, 0.05% polysorbate 20, temperature not stated; NMR conditions not in material
readout.name: Kd (µM)
Give bare numbers, in µM.

For record GAGGCGCTCGGCGGCAG (double strand) [CpG(x3) 17 bp, 3'-biotin] the listed Kd is 65
